Tested on: Orchid Thrips (dichromothrips corbetti)
Assay: Orchid thrips, floral-immersion technique
Type: in vivo
Conditions: Thrips, 72 h
mortality at 300 ppm overview
readoutType: mortality at 300 ppm

1) COC(=O)c1ccc(C2=NOC(c3cc(Cl)c(F)c(Cl)c3)(C(F)(F)F)C2)c2c1CCC2 (stereo not shown)	≥ 75%
2) O=C(NCc1ccccn1)c1ccc(C2=NOC(c3cc(Cl)cc(Cl)c3)(C(F)(F)F)C2)c2c1CCC2 (stereo not shown)	≥ 75%
3) O=C(NCC(F)(F)F)c1ccc(C2=NOC(c3cc(Cl)cc(Cl)c3)(C(F)(F)F)C2)c2c1CCCC2 (stereo not shown)	≥ 75%
4) O=C(NCC1CC1)c1ccc(C2=NOC(c3cc(Cl)c(F)c(Cl)c3)(C(F)(F)F)C2)c2c1CCC2 (stereo not shown)	≥ 75%
